Experiment: The compound was tested for its ability to inhibit ErmC methylase; Range 50-100
pKi: −log10 of the molar value.
pKi: recorded values
measuredQuantity: pKi

compound	result
Nc1nc(CC[C@@H]2O[C@H](COCc3ccc(Br)cc3)[C@@H](O)[C@H]2O)nc(NC2Cc3ccccc3C2)n1	4.00
Nc1nc(CC2O[C@H](CSCCc3ccccc3)[C@@H](O)[C@H]2O)nc(NC2Cc3ccccc3C2)n1 (some centres not stated)	4.00

---

The following molecules have recorded Ki on rRNA adenine N-6-methyltransferase (Streptococcus pneumoniae, UniProt P21236).
Sequence (P21236 whole entry): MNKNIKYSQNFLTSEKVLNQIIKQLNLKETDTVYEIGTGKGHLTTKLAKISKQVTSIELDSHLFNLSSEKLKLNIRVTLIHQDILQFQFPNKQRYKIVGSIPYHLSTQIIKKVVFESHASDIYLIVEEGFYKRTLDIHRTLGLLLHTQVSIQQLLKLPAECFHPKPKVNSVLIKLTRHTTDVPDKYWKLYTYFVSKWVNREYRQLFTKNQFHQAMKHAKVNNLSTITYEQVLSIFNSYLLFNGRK

molecule	Ki
Nc1nc(CC2O[C@H](CSc3ccccc3)[C@@H](O)[C@H]2O)nc(NC2Cc3ccccc3C2)n1 (stereo partly specified)	> 100 µM
Nc1nc(C[C@@H]2O[C@H](COC/C=C/c3ccccc3)[C@@H](O)[C@H]2O)nc(NC2Cc3ccccc3C2)n1	~90 µM
Nc1nc(CC[C@@H]2O[C@H](COCc3ccc(Br)cc3)[C@@H](O)[C@H]2O)nc(NC2Cc3ccccc3C2)n1	~50 µM
Nc1nc(C[C@@H]2O[C@H](COCc3ccc(Br)cc3)[C@@H](O)[C@H]2O)nc(NC2Cc3ccccc3C2)n1	~75 µM
Nc1nc(CC2O[C@H](COCc3ccccc3)[C@@H](O)[C@H]2O)nc(NC2Cc3ccccc3C2)n1 (stereo partly specified)	> 100 µM
Nc1nc(CC2O[C@H](CSCc3ccc(Cl)cc3)[C@@H](O)[C@H]2O)nc(NC2Cc3ccccc3C2)n1 (stereo partly specified)	~55 µM
